assaySystem: S. aureus MRSA LeuRS (Staphylococcus aureus, UniProt P67513)
Sequence (P67513 whole entry, looked up): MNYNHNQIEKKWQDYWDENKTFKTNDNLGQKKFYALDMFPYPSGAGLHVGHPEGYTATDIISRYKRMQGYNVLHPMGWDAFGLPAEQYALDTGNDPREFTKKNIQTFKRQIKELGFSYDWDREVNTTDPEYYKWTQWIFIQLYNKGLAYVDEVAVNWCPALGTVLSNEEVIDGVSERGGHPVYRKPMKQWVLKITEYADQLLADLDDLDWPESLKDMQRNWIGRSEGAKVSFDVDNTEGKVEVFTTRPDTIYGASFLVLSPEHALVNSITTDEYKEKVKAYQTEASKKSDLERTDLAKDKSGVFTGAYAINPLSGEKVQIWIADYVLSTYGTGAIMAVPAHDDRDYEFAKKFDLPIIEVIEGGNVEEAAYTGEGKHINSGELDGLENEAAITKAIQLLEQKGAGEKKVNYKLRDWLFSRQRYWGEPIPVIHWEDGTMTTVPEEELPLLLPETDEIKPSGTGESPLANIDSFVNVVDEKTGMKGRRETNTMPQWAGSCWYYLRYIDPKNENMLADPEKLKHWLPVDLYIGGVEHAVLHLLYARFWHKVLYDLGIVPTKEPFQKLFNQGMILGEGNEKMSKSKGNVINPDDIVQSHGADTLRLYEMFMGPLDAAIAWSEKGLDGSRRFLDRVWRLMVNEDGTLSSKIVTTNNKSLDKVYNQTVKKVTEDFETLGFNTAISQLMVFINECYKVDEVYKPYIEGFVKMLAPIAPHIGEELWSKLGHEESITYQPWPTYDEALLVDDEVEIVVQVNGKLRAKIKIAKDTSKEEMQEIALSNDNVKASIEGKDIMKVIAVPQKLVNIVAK

structureSmilesString: CC(C)C[C@H](N)C(=O)NS(=O)(=O)OC[C@H]1O[C@@H](c2nc(CCc3ccc(Oc4ccccc4)cc3)cs2)[C@H](O)[C@@H]1O
unitInfo: nM
IC50: 100

* * *

assaySystem: Isoleucine--tRNA ligase, cytoplasmic (Homo sapiens, UniProt P41252)
Sequence (P41252 whole entry): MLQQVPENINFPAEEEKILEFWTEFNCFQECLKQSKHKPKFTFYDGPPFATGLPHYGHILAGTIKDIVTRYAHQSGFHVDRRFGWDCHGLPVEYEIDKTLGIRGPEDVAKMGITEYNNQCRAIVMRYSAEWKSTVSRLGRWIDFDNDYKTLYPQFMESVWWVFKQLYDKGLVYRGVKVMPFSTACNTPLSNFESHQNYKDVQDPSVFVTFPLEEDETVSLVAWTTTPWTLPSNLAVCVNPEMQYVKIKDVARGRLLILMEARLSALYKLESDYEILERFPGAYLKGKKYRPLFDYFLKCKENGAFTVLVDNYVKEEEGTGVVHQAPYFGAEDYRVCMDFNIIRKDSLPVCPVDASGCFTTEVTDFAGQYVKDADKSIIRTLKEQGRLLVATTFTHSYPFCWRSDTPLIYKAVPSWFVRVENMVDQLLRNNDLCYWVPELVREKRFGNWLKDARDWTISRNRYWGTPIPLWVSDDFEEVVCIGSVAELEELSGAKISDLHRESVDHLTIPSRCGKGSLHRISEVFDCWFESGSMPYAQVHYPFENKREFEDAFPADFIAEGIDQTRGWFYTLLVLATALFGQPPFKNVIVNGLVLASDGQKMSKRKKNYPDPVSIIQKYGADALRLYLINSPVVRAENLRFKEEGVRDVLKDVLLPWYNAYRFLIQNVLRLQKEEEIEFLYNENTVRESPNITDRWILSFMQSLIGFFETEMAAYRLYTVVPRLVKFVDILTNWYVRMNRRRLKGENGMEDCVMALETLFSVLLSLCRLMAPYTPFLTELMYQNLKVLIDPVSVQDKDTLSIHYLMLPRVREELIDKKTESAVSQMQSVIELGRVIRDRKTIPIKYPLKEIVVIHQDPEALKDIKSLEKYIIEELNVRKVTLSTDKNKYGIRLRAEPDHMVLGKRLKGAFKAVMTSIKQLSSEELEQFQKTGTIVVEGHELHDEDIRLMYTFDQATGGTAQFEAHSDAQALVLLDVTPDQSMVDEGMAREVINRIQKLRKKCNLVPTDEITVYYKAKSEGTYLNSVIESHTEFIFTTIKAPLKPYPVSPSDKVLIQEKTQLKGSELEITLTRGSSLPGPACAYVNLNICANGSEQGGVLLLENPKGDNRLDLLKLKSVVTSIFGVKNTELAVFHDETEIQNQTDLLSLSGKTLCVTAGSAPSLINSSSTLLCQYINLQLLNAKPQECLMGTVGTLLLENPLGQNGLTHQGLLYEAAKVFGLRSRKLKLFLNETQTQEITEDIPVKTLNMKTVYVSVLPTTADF
pIC50: −log10 of the molar value.

compound: CCC(C)[C@H](N)C(=O)NS(=O)(=O)OC[C@H]1O[C@@H](c2nc(-c3ccc4cc(OC)ccc4c3)cs2)[C@H](O)[C@@H]1O (stereo not given in full)
pIC50: 6.40
--
compound: CCC(C)[C@H](N)C(=O)NS(=O)(=O)OC[C@H]1O[C@@H](c2nc(CCc3ccc(Oc4ccccc4)cc3)cs2)[C@H](O)[C@@H]1O (stereo not given in full)
pIC50: 5.99
--
compound: CCC(C)[C@H](N)C(=O)NS(=O)(=O)OC[C@H]1O[C@@H](c2nc(-c3cc(C#N)co3)cs2)[C@H](O)[C@@H]1O (stereo not given in full)
pIC50: 6.92
--
compound: CCC(C)[C@H](N)C(=O)NS(=O)(=O)OC[C@H]1O[C@@H](c2nc(-c3ccc(OC)cc3)cs2)[C@H](O)[C@@H]1O (stereo not given in full)
pIC50: 6.70
--
compound: CCC(C)[C@H](N)C(=O)NS(=O)(=O)OC[C@H]1O[C@@H](c2nc(CCc3ccccc3)cs2)[C@H](O)[C@@H]1O (stereo not given in full)
pIC50: 6.52
